Test system: Salmonella enterica typhimurium
METHOD_NOTES: growth AUC normalised to DMSO control (fraction of control); higher = less growth inhibition, active = hit call of the paper
PROTOCOL_CONDITIONS: 20 µM
Counter-ions that a name gives are not always drawn.
growth AUC normalised to DMSO control: recorded values
The reply should be a number, written without any unit.

COMPOUND | EXPERIMENTAL_RESULT
CN(C)CCC=C1c2ccccc2C=Cc2ccccc21 [Cyclobenzaprine hydrochloride] | 0.98
CC(C)(C(=O)O)c1ccc(C(O)CCCN2CCC(C(O)(c3ccccc3)c3ccccc3)CC2)cc1 (stereo not given) [Fexofenadine hydrochloride] | 1.02
O=C(CCCCCCC(=O)Nc1ccccc1)NO | 0.994
COC(=O)CCc1ccc(OCC(O)CNC(C)C)cc1 (stereo not given) [Esmolol hydrochloride] | 1.01

In the following, a different compound is considered.
Task: # growth AUC normalised to DMSO control lookup, item `O=C(CCCN1CCC(O)(c2ccc(Br)cc2)CC1)c1ccc(F)cc1`
Result: 1.02

The reported numbers originate from the supplement of paper PMC12350171.
